system: GDM-1 (Acute Myeloid Leukemia); test: Bliss excess, mean over the matrix (fraction); higher = more synergy
Below, each of the compounds is paired with its reported Bliss excess value.
// return a plain number; no unit text

- COMPOUND: "COc1cccc(OCCCN)c1-c1cc(Nc2cnc(C#N)cn2)n[nH]1 [Prexasertib] + CN(C)CCCOc1ccc(-c2ccc3ncc4c(c3c2)n(C2CCOCC2)c(=O)n4C)cn1 [AZD0156] (first compound max 1 µM, 7x7, partner max 1 µM)"
  Bliss excess: -0.0491
- COMPOUND: "CN(CCO)CC[C@H](CSc1ccccc1)Nc1ccc(S(=O)(=O)NC(=O)c2ccc(N3CCC([C@@H](O)c4ccccc4-c4ccc(Cl)cc4)CC3)cc2)cc1S(=O)(=O)C(F)(F)F [AZD4320] + C1CN(CCC1(C(=O)N[C@@H](CCO)C2=CC=C(C=C2)Cl)N)C3=NC=NC4=C3C=CN4 [Capivasertib] (first compound max 1 µM, 7x7, partner max 3 µM)"
  Bliss excess: -0.0206
- COMPOUND: "Cc1c2c(nn1C)CSCc1cc(n(C)n1)CSc1cc(c3ccccc3c1)OCCCc1c(C(=O)O)n(C)c3c-2c(Cl)ccc13 [AZD5991] + C=CCn1c(=O)c2cnc(Nc3ccc(N4CCN(C)CC4)cc3)nc2n1-c1cccc(C(C)(C)O)n1 [AZD1775] (first compound max 1 µM, partner max 1 µM)"
  Bliss excess: 0.0207

Briefly, Bliss excess measured for CC(=O)c1c(C)c2cnc(Nc3ccc(N4CCNCC4)cn3)nc2n(C2CCCC2)c1=O [Palbociclib] + Cn1cnc2c(F)c(Nc3ccc(Br)cc3Cl)c(C(=O)NOCCO)cc21 [Selumetinib] (first compound max 10 µM, 7x7, partner max 10 µM) : 0.0343

###

Below, each of the compounds is paired with its reported Bliss excess value.
tested on: D-283MED (Other Solid Carcinomas); experiment: Bliss excess, mean over the matrix (fraction); higher = more synergy

Use the examples below as a reference point.
- COMPOUND: "CC1(C)CCC(CN2CCN(c3ccc(C(=O)NS(=O)(=O)c4ccc(NCC5CCOCC5)c([N+](=O)[O-])c4)c(Oc4cnc5[nH]ccc5c4)c3)CC2)=C(c2ccc(Cl)cc2)C1 [Venetoclax] + COc1cc(Nc2ncc3c(n2)-c2ccc(Cl)cc2C(c2c(F)cccc2OC)=NC3)ccc1C(=O)O [Alisertib] (first compound max 1 µM, 7x7, partner max 10 µM)"
  Bliss excess: 0.0345
- COMPOUND: "NC1(C(=O)N[C@@H](CCO)c2ccc(Cl)cc2)CCN(c2ncnc3[nH]ccc23)CC1 [Capivasertib] + CC(C)n1c(=O)n(C)c2cnc3cc(F)c(-c4ccc(OCCCN5CCCCC5)nc4)cc3c21 [AZD1390] (first compound max 10 µM, 7x7, partner max 0.3 µM)"
  Bliss excess: -0.0009

Field Bliss excess (system: D-283MED (Other Solid Carcinomas)) for entry COc1cccc(OCCCN)c1-c1cc(Nc2cnc(C#N)cn2)n[nH]1 [Prexasertib] + CCc1c2c(nc3ccc(O)cc13)-c1cc3c(c(=O)n1C2)COC(=O)[C@]3(O)CC [SN-38] (first compound max 1 µM, 7x7, partner max 0.3 µM) = -0.0222

###

test system: KG-1 (Acute Myeloid Leukemia); assay: combination Emax (second highest fraction inhibited in the dose matrix, 72 h); higher = more inhibition; extreme values may be limits of the assay
PROPERTY: combination Emax
// return a plain number; no unit text

- COMPOUND: "C=CCn1c(=O)c2cnc(Nc3ccc(N4CCN(C)CC4)cc3)nc2n1-c1cccc(C(C)(C)O)n1 [AZD1775] + C1CN(CCC1(C(=O)N[C@@H](CCO)C2=CC=C(C=C2)Cl)N)C3=NC=NC4=C3C=CN4 [Capivasertib] (first compound max 3 µM, partner max 3 µM)"
  combination Emax: 0.852
- COMPOUND: "Cc1c2c(nn1C)CSCc1cc(n(C)n1)CSc1cc(c3ccccc3c1)OCCCc1c(C(=O)O)n(C)c3c-2c(Cl)ccc13 [AZD5991] + Cn1cnc2c(F)c(Nc3ccc(Br)cc3Cl)c(C(=O)NOCCO)cc21 [Selumetinib] (first compound max 1 µM, 7x7, partner max 3 µM)"
  combination Emax: 1
- COMPOUND: "COc1nnc2ccc(N3CCC(c4ccc(OCCN5CCN(C)C(=O)[C@H]5C)cc4)CC3)nn12 [AZD5153] + C[C@@H]1COCCN1C2=NC(=NC(=C2)C3(CC3)[S@](=N)(=O)C)C4=C5C=CNC5=NC=C4 [AZD6738] (first compound max 1 µM, 7x7, partner max 10 µM)"
  combination Emax: 0.905
- COMPOUND: "COc1nnc2ccc(N3CCC(c4ccc(OCCN5CCN(C)C(=O)[C@H]5C)cc4)CC3)nn12 [AZD5153] + Cn1cnc2c(F)c(Nc3ccc(Br)cc3Cl)c(C(=O)NOCCO)cc21 [Selumetinib] (first compound max 1 µM, 7x7, partner max 10 µM)"
  combination Emax: 0.817
- COMPOUND: "Cc1c2c(nn1C)CSCc1cc(n(C)n1)CSc1cc(c3ccccc3c1)OCCCc1c(C(=O)O)n(C)c3c-2c(Cl)ccc13 [AZD5991] + C[C@@H]1COCCN1C2=NC(=NC(=C2)C3(CC3)[S@](=N)(=O)C)C4=C5C=CNC5=NC=C4 [AZD6738] (first compound max 1 µM, 7x7, partner max 10 µM)"
  combination Emax: 1

Field combination Emax (system: KG-1 (Acute Myeloid Leukemia)) for entry COc1cccc(OCCCN)c1-c1cc(Nc2cnc(C#N)cn2)n[nH]1 [Prexasertib] + C[C@@H]1COCCN1C2=NC(=NC(=C2)C3(CC3)[S@](=N)(=O)C)C4=C5C=CNC5=NC=C4 [AZD6738] (first compound max 1 µM, 7x7, partner max 10 µM) = 0.931

Field combination Emax (system: KG-1 (Acute Myeloid Leukemia)) for entry CN(CCO)CC[C@H](CSc1ccccc1)Nc1ccc(S(=O)(=O)NC(=O)c2ccc(N3CCC([C@@H](O)c4ccccc4-c4ccc(Cl)cc4)CC3)cc2)cc1S(=O)(=O)C(F)(F)F [AZD4320] + C[C@@H]1COCCN1C2=NC(=NC(=C2)C3(CC3)[S@](=N)(=O)C)C4=C5C=CNC5=NC=C4 [AZD6738] (first compound max 1 µM, 7x7, partner max 10 µM) = 1

Field combination Emax (system: KG-1 (Acute Myeloid Leukemia)) for entry COc1cccc(OCCCN)c1-c1cc(Nc2cnc(C#N)cn2)n[nH]1 [Prexasertib] + CN(C)CCCOc1ccc(-c2ccc3ncc4c(c3c2)n(C2CCOCC2)c(=O)n4C)cn1 [AZD0156] (first compound max 1 µM, 7x7, partner max 1 µM) = 0.903

Field combination Emax (system: KG-1 (Acute Myeloid Leukemia)) for entry CS(=O)(=O)CCNCc1ccc(-c2ccc3ncnc(Nc4ccc(OCc5cccc(F)c5)c(Cl)c4)c3c2)o1 [Lapatinib] + C[C@@H](Oc1cc(-c2cnn(C3CCNCC3)c2)cnc1N)c1c(Cl)ccc(F)c1Cl [Crizotinib] (first compound max 10 µM, 7x7, partner max 10 µM) = 0.49

Field combination Emax (system: KG-1 (Acute Myeloid Leukemia)) for entry Cc1c2c(nn1C)CSCc1cc(n(C)n1)CSc1cc(c3ccccc3c1)OCCCc1c(C(=O)O)n(C)c3c-2c(Cl)ccc13 [AZD5991] + Cc1cc2ncnn2cc1Nc1ncc2c(n1)n(C1CCOCC1)c(=O)n2C [AZD7648] (first compound max 1 µM, 7x7, partner max 10 µM) = 1

Field combination Emax (system: KG-1 (Acute Myeloid Leukemia)) for entry CC(=O)c1c(C)c2cnc(Nc3ccc(N4CCNCC4)cn3)nc2n(C2CCCC2)c1=O [Palbociclib] + CC1(C)CCC(CN2CCN(c3ccc(C(=O)NS(=O)(=O)c4ccc(NCC5CCOCC5)c([N+](=O)[O-])c4)c(Oc4cnc5[nH]ccc5c4)c3)CC2)=C(c2ccc(Cl)cc2)C1 [Venetoclax] (first compound max 10 µM, 7x7, partner max 1 µM) = 0.85

Field combination Emax (system: KG-1 (Acute Myeloid Leukemia)) for entry C=CCn1c(=O)c2cnc(Nc3ccc(N4CCN(C)CC4)cc3)nc2n1-c1cccc(C(C)(C)O)n1 [AZD1775] + O=C(c1cc(Cc2n[nH]c(=O)c3ccccc23)ccc1F)N1CCN(C(=O)C2CC2)CC1 [Olaparib] (first compound max 1 µM, partner max 10 µM) = 0.412

Field combination Emax (system: KG-1 (Acute Myeloid Leukemia)) for entry Cn1cnc2c(F)c(Nc3ccc(Br)cc3Cl)c(C(=O)NOCCO)cc21 [Selumetinib] + C=CCn1c(=O)c2cnc(Nc3ccc(N4CCN(C)CC4)cc3)nc2n1-c1cccc(C(C)(C)O)n1 [AZD1775] (first compound max 10 µM, partner max 1 µM) = 0.587

Field combination Emax (system: KG-1 (Acute Myeloid Leukemia)) for entry Cc1c2c(nn1C)CSCc1cc(n(C)n1)CSc1cc(c3ccccc3c1)OCCCc1c(C(=O)O)n(C)c3c-2c(Cl)ccc13 [AZD5991] + CC1(C)CCC(CN2CCN(c3ccc(C(=O)NS(=O)(=O)c4ccc(NCC5CCOCC5)c([N+](=O)[O-])c4)c(Oc4cnc5[nH]ccc5c4)c3)CC2)=C(c2ccc(Cl)cc2)C1 [Venetoclax] (first compound max 1 µM, 7x7, partner max 1 µM) = 1
